Target: Ephrin type-A receptor 3 (Homo sapiens);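 note: values are mean inhibition of EPHA3, from the GSK PKIS dataset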
Conditions: at 0.1 µM
readout kind: inhibition (%)

- CCOc1ccc2c(-c3ccnc(Nc4cccc(C(F)(F)F)c4)n3)cnn2n1: 1.59
- c1ccc(COc2ccc(Nc3ncnc4ccc(-c5ccco5)cc34)cc2)cc1: -0.08
- COc1ccc(-c2oc3ncnc(N)c3c2-c2ccc(NC(=O)Nc3cc(C(F)(F)F)ccc3F)cc2)cc1: 82.1
- CC(=O)Nc1cccc(C#Cc2cncnc2Nc2ccc(OCc3cccc(F)c3)c(Cl)c2)c1: 4.65
- COc1cc(Nc2nccc(Nc3ccc4c(C)n[nH]c4c3)n2)cc(OC)c1OC: 6.23
- Fc1ccc(-c2nn3ncccc3c2-c2ccnc(Nc3ccc4c(c3)OCCO4)n2)cc1: 7.69
- CC(=O)NCc1cccc(C#Cc2cncnc2Nc2ccc(OCc3cccc(F)c3)c(Cl)c2)c1: -2.09
- COc1ccc2c(-c3ccnc(Nc4cccc(OC(F)(F)F)c4)n3)cnn2n1: 6.89
- CCN1CCC(CC(=O)Nc2n[nH]c3nnc(-c4cccc(F)c4F)cc23)CC1: 3.31
- COc1cc(/C=N/Nc2ncnc3[nH]ncc23)ccc1O: 5.55
- Nc1nc(-c2ccc(F)cc2)c(-c2ccc3ncccc3n2)s1: 5.86
- COc1ccc(-c2cc(-c3c[nH]nc3-c3ccccn3)ccn2)cc1: 4.5
- Cc1ccc(O)cc1Nc1ccnc2cc(-c3ccccn3)ccc12: 79.3
- CCn1c(-c2nonc2N)nc2c(C#CC(C)(C)O)nc(OC[C@H](N)c3ccccc3)cc21: 2.11
- COc1cc2c(cc1Nc1nc(Nc3ccsc3C(N)=O)c3cc[nH]c3n1)N(C(=O)CN(C)C)CCC2(C)C: 4.65
- COc1ccc2[nH]c3c4[nH]c5ccc(OC)cc5c4c4c(c3c2c1)C(=O)NC4=O: 5.78
- O=C(O[C@H]1CN[C@H](C#Cc2cc3ncnc(Nc4ccc(Cc5ccccc5)cc4)c3s2)C1)N1CCOCC1: 2.25
- CCc1nn2ncccc2c1-c1ccnc(NC2CC2)n1: 2.4

----------
System: Receptor-type tyrosine-protein kinase FLT3 (Homo sapiens), P36888 [D835Y]
Conditions: at 0.1 µM
inhibition listing for selected compounds.
readout kind: inhibition (%)

- FC(F)(F)c1cccc(-c2nn3ncccc3c2-c2ccnc(Nc3ccc4c(c3)OCCO4)n2)c1: -3.8
- CNC(=O)c1cccc(C#Cc2cncnc2Nc2ccc(OCc3cccc(F)c3)c(Cl)c2)c1: 1.13
- Cc1ccc(O)cc1Nc1ccnc2cc(-c3ccccn3)ccc12: 1.48
- COC(=O)Nc1nc2ccc(S(=O)(=O)c3ccc(NC(=O)Nc4cc(C(F)(F)F)ccc4F)cc3)cc2[nH]1: -2.76
- Cc1cccc2c1NC(=O)/C2=N\Nc1ccc(S(N)(=O)=O)cc1: 3.4
- COc1cc2ncn(-c3cc(OCc4ccccc4C(F)(F)F)c(C(=O)N(C)C)s3)c2cc1OC: -1.94
- Clc1ccc(-c2nn3ncccc3c2-c2ccnc(Nc3ccccc3)n2)cc1: -2.63
- c1cc(-c2cnn3nc(N4CCOCC4)ccc23)nc(NC2CC2)n1: 7.24
- COc1ccc(CNC(=O)c2ccc(-c3cc(-c4nnc(C)o4)ccc3C)cc2)cc1: -2.79
- Fc1ccc(-c2nn3ccccc3c2-c2ccncc2)cc1: -0.98
- COc1ccc(-c2oc3ncnc(N)c3c2-c2ccc(NC(=O)Nc3cc(C(F)(F)F)ccc3F)cc2)cc1: 12.7
- COc1ccc2[nH]c3c4[nH]c5ccc(OC)cc5c4c4c(c3c2c1)C(=O)NC4=O: 65
- c1ccc(COc2ccc(Nc3ncnc4ccc(-c5ccco5)cc34)cc2)cc1: -0.59
- [O-][S+]1CCN(Cc2ccc(-c3ccc4ncnc(Nc5ccc(OCc6cccc(F)c6)c(Cl)c5)c4c3)o2)CC1: 1.35
- COc1ccc2c(-c3ccnc(Nc4cccc(OC(F)(F)F)c4)n3)cnn2n1: 3.59
- NC(=O)c1sc(-n2cnc3ccc(C(F)(F)F)cc32)cc1OCc1ccccc1Br: -2.48
- CC(C)COC(=O)c1ccc2c(c1)/C(=C/Nc1ccc(S(N)(=O)=O)cc1)C(=O)N2: 58.7
- O=C(Nc1n[nH]c2cc(-c3ccc(F)cc3)ccc12)C1CC1: -0.06
- CCNC(=O)O[C@H]1CN[C@H](C#Cc2cc3ncnc(Nc4ccc(OCc5cccc(F)c5)c(Cl)c4)c3s2)C1: 3.08
- COc1cc(/C=N/Nc2ncnc3[nH]ncc23)ccc1O: 3.54
- Fc1cccc(COc2ccc(Nc3ncnc4sc(-c5ccco5)cc34)cc2Cl)c1: -8.41
- CN1CCC(n2cnc(-c3ccc(F)cc3)c2-c2ccnc(Nc3ccccc3)n2)CC1: -1.9
- CS(=O)(=O)CCNCc1ccc(-c2ccc3ncnc(Nc4ccc(OCc5ccccc5)c(C(F)(F)F)c4)c3c2)o1: -8.47
- COC(=O)c1sc(-n2cnc3cc(OC)c(OC)cc32)cc1OCc1ccccc1C(F)(F)F: -4.92
- COc1ccc(-c2cc3c(N)ncnc3o2)cc1: -4.44
- COc1cc2c(cc1Nc1nc(Nc3ccsc3C(N)=O)c3cc[nH]c3n1)N(C(=O)CN(C)C)CCC2(C)C: 0.35
- CNC(=O)c1cncc(/C=C/c2ccccc2Cl)c1: 3.03
- COc1cc(Nc2nccc(Nc3ccc4c(C)n[nH]c4c3)n2)cc(OC)c1OC: 52.4

----------
Biological target: Ephrin type-B receptor 3 (Homo sapiens) (UniProt P54753);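 note: values are mean percent inhibition of EPHB3 from the GSK PKIS screening panel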
Sequence (whole entry): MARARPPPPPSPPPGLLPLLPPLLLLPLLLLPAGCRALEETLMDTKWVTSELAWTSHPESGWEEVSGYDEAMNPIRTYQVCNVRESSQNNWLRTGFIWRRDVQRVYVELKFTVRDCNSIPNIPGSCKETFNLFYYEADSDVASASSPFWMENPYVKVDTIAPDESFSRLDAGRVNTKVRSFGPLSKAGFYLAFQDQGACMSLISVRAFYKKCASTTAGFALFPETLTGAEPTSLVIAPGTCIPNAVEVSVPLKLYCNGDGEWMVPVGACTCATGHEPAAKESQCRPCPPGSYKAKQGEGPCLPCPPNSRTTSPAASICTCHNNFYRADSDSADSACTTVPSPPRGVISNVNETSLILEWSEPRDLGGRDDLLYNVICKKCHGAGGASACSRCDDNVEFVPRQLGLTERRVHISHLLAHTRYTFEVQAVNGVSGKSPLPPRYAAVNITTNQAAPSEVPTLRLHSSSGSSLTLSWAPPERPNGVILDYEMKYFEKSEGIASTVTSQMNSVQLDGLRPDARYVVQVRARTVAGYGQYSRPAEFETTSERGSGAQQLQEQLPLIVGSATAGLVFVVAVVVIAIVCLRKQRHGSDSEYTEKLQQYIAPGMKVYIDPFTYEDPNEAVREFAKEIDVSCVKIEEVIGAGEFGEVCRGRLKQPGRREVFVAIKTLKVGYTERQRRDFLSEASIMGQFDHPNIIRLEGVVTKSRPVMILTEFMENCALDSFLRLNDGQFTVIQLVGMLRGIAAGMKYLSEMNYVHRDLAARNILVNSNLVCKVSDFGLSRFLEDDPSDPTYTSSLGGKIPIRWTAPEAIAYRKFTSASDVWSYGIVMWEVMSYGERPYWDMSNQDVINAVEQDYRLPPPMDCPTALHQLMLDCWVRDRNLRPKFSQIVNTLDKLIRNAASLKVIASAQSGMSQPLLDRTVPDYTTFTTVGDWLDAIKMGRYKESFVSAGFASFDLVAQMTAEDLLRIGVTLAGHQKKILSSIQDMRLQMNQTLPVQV
Settings: at 1 µM
inhibition listing for selected compounds.
readout kind: inhibition (%)

- CCc1nn2ncccc2c1-c1ccnc(NC2CC2)n1: 3.88
- Cc1cccc(Nc2ncc(-c3ccccc3)o2)c1: 2.29
- CCN(CC)S(=O)(=O)c1ccc(OC)c(Nc2ncc(-c3ccccc3)o2)c1: 0.54
- [O-][S+]1CCN(Cc2ccc(-c3ccc4ncnc(Nc5ccc(OCc6cccc(F)c6)c(Cl)c5)c4c3)o2)CC1: 7.49

----------
Target: Cyclin-dependent kinase 4 (Homo sapiens) (UniProt P11802)
Sequence (P11802 whole entry): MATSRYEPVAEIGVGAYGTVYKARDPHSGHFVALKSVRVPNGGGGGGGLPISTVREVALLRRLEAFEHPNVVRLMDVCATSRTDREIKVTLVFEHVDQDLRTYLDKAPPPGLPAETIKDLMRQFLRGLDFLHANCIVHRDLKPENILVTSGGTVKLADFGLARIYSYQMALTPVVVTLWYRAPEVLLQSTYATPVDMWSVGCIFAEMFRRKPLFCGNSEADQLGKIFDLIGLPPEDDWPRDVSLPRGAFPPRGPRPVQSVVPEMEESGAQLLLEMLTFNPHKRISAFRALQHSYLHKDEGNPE
Conditions: at 0.1 µM
Description: GSK_PKIS: CDK4/cyclinD mean inhibition at 0.1 uM [Nanosyn]
readout kind: inhibition (%)

* CS(=O)(=O)CCNCc1ccc(-c2ccc3ncnc(Nc4ccc(OCc5ccccc5)c(C(F)(F)F)c4)c3c2)o1 | 2.38
* CCN1CCC(CC(=O)Nc2n[nH]c3nnc(-c4cccc(F)c4F)cc23)CC1 | 5.41
* CC(C)COC(=O)c1ccc2c(c1)/C(=C/Nc1ccc(S(N)(=O)=O)cc1)C(=O)N2 | 24.7
* COc1ccc2c(-c3ccnc(Nc4cccc(OC(F)(F)F)c4)n3)cnn2n1 | 3.8
* Cc1ccc2c(-c3ccnc(Nc4ccccc4)n3)c(-c3ccc(F)cc3)nn2n1 | 6.51

----------
Molecular target: Ephrin type-B receptor 2 (Homo sapiens);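 note: reported as mean inhibition of EPHB2, from the GSK PKIS dataset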
Sequence (whole entry): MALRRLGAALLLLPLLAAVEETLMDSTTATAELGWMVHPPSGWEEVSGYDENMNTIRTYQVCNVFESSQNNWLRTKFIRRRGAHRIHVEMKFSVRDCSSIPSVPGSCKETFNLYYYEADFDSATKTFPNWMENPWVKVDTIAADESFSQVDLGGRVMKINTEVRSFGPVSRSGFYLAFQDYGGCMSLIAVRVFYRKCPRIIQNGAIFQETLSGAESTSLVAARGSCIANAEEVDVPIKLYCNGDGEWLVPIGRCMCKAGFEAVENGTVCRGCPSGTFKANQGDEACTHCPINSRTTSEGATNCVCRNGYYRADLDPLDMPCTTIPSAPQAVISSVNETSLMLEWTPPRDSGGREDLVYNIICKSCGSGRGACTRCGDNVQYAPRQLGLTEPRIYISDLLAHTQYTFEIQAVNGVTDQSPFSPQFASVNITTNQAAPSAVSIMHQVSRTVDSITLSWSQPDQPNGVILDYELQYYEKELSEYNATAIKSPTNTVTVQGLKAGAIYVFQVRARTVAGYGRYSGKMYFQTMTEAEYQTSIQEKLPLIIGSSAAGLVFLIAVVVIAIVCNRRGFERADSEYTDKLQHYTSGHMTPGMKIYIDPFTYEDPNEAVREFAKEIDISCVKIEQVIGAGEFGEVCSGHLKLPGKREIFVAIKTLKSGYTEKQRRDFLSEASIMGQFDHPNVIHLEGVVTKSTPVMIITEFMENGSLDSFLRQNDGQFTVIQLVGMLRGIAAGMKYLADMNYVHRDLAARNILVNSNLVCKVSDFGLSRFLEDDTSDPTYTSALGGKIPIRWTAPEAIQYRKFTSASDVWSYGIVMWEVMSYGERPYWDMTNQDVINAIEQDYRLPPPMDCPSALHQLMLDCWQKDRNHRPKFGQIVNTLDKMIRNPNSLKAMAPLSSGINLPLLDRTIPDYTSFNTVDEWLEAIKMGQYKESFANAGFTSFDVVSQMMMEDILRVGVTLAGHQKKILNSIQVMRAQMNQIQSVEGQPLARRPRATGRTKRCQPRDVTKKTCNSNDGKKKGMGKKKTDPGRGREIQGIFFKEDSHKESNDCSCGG
Conditions: at 0.1 µM
inhibition listing for selected compounds.
readout kind: inhibition (%)

• CCN1CCC(CC(=O)Nc2n[nH]c3nnc(-c4cccc(F)c4F)cc23)CC1 = -4.82
• CCOc1ccc2c(-c3ccnc(Nc4cccc(C(F)(F)F)c4)n3)cnn2n1 = 7.74
• Fc1cccc(COc2ccc(Nc3ncnc4sc(-c5ccco5)cc34)cc2Cl)c1 = 9.21
• Nc1nc(-c2cccc(Cl)c2)c(-c2ccc3ncccc3n2)s1 = 6.05
• Cc1cccc2c1NC(=O)/C2=N\Nc1ccc(S(N)(=O)=O)cc1 = 7.03
• CC(C)COC(=O)c1ccc2c(c1)/C(=C/Nc1ccc(S(N)(=O)=O)cc1)C(=O)N2 = -3.84
• COc1cccc(-n2ncc3c(N/N=C/c4ccc(F)cc4)ncnc32)c1 = 5.53
• [O-][S+]1CCN(Cc2ccc(-c3ccc4ncnc(Nc5ccc(OCc6cccc(F)c6)c(Cl)c5)c4c3)o2)CC1 = 9.52
• COC(=O)Nc1nc2ccc(Oc3ccc(NC(=O)Nc4cccc(Cl)c4)cc3)cc2[nH]1 = 36.9
• N#Cc1c(NC(=O)c2ccc(F)cc2)sc2c1CCCC2 = 2.69
• COc1cc2c(cc1Nc1nc(Nc3ccsc3C(N)=O)c3cc[nH]c3n1)N(C(=O)CN(C)C)CCC2(C)C = 6.01
• CC1=C(C(=O)Nc2cc(Cl)c3[nH]ncc3c2)C(c2ccc(C(F)(F)F)cc2)CC(=O)N1 (stereo unspecified) = 1.63
• CCN(CC)S(=O)(=O)c1ccc(OC)c(Nc2ncc(-c3ccccc3)o2)c1 = 5.55
• COC(=O)Nc1nc2ccc(S(=O)(=O)c3ccc(NC(=O)Nc4cc(C(F)(F)F)ccc4F)cc3)cc2[nH]1 = 6.82
• NS(=O)(=O)c1ccc(N/N=C2\C(=O)Nc3ccc4ncccc4c32)cc1 = 8.06
• COc1ccc(CNC(=O)c2ccc(-c3cc(-c4nnc(C)o4)ccc3C)cc2)cc1 = 7.58
